Cited source for all entries: PubChem BioAssay AID1963848

Test system: 379773-124-R-J2-PDC spheroid viability
Experiment: Anticancer human tumor 379773-124-R-J2-PDC patient-derived endometrial carcinoma cell line growth inhibition [POLQ]; active means viability on the fitted dose curve at most 10% of control; inactive means the rest
Conditions: second compound 0.1 µM; first compound 3.16 µM; spheroids with HUVEC and MSC
Lab note: assign the record to one of True (active), False (inactive)

IN: Query: recorded result category for COc1cccc2c1C(=O)c1c(O)c3c(c(O)c1C2=O)CC(O)(C(=O)CO)CC3OC1CC(N)C(O)C(C)O1 (stereo not given) + COC1C(OC(N)=O)C(O)C(Oc2ccc3c(O)c(NC(=O)c4ccc(O)c(CC=C(C)C)c4)c(=O)oc3c2C)OC1(C)C in this test
OUT: True

IN: Outcome logged for O=C(Nc1ccc(O)c(NS(=O)(=O)c2ccc(F)cc2)c1)c1ccc(-c2ccccc2)cc1 + COC1C(OC(N)=O)C(O)C(Oc2ccc3c(O)c(NC(=O)c4ccc(O)c(CC=C(C)C)c4)c(=O)oc3c2C)OC1(C)C in this assay:
OUT: False

IN: Please state the recorded outcome for this compound: COc1cc(C2c3cc4c(cc3C(OC3OC5COC(C)OC5C(O)C3O)C3COC(=O)C23)OCO4)cc(OC)c1O (stereo not given) + Cc1cccc(N(C)C(=O)C2C(O)CCN2c2nc(C)cc(C(F)(F)F)c2C#N)c1
OUT: False

IN: Which outcome did this test record for the compound COc1cccc2c1C(=O)c1c(O)c3c(c(O)c1C2=O)CC(O)(C(=O)CO)CC3OC1CC(N)C(O)C(C)O1 (stereo not given) + Nc1ccc(C#CCN(C(=O)Cc2ncc(C(F)(F)F)cc2C(F)(F)F)c2ccc(F)cc2)nn1 ?
OUT: True

IN: # lookup: test call for O=c1[nH]cc(F)c(=O)[nH]1 + Cc1cccc(N(C)C(=O)C2C(O)CCN2c2nc(C)cc(C(F)(F)F)c2C#N)c1
OUT: False

###

Tested on: 379773-124-R-J2-PDC spheroid viability
Assay: Anticancer human tumor 379773-124-R-J2-PDC cell line growth inhibition [POLQ];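 further: spheroids exposed to drugs for seven days before readout; percent viability relative to DMSO vehicle control taken as 100%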
Details: second compound 1 µM; first compound 1 µM; active compounds read low; spheroids with HUVEC and MSC
Strictly below 80% in viability, T/C: 1 (yes). Otherwise: 0 (no).

IN: Report whether reported viability, T/C is lower than 80% (strictly) for COc1cccc(OCCCN)c1-c1cc(Nc2cnc(C#N)cn2)n[nH]1 + COC1C(OC(N)=O)C(O)C(Oc2ccc3c(O)c(NC(=O)c4ccc(O)c(CC=C(C)C)c4)c(=O)oc3c2C)OC1(C)C
OUT: 1 (yes)

IN: Please let me know if O=c1[nH]cc(F)c(=O)[nH]1 + COC1C(OC(N)=O)C(O)C(Oc2ccc3c(O)c(NC(=O)c4ccc(O)c(CC=C(C)C)c4)c(=O)oc3c2C)OC1(C)C shows viability, T/C below 80%.
OUT: 1 (yes)

IN: Lab log: compare recorded viability, T/C with 80%; is it strictly lower for CCc1c2c(nc3ccc(O)cc13)-c1cc3c(c(=O)n1C2)COC(=O)[C@]3(O)CC + Cc1cccc(N(C)C(=O)C2C(O)CCN2c2nc(C)cc(C(F)(F)F)c2C#N)c1 ?
OUT: 1 (yes)

IN: Please check: viability, T/C for CC(C)n1c(=O)n(C)c2cnc3cc(F)c(-c4ccc(OCCCN5CCCCC5)nc4)cc3c21 + Cc1cccc(N(C)C(=O)C2C(O)CCN2c2nc(C)cc(C(F)(F)F)c2C#N)c1 , strictly under 80% or not?
OUT: 1 (yes)

IN: Confirm or reject: viability, T/C of CNCc1ccc(-c2[nH]c3cc(F)cc4c3c2CCNC4=O)cc1 + Cc1cccc(N(C)C(=O)C2C(O)CCN2c2nc(C)cc(C(F)(F)F)c2C#N)c1 lies strictly below 80%
OUT: 1 (yes)

IN: is_below(viability, T/C, 80%) for C=CCn1c(=O)c2cnc(Nc3ccc(N4CCN(C)CC4)cc3)nc2n1-c1cccc(C(C)(C)O)n1 + COC1C(OC(N)=O)C(O)C(Oc2ccc3c(O)c(NC(=O)c4ccc(O)c(CC=C(C)C)c4)c(=O)oc3c2C)OC1(C)C ?
OUT: 1 (yes)

IN: Item COc1cc(C2c3cc4c(cc3C(OC3OC5COC(C)OC5C(O)C3O)C3COC(=O)C23)OCO4)cc(OC)c1O (stereo not given) + COC1C(OC(N)=O)C(O)C(Oc2ccc3c(O)c(NC(=O)c4ccc(O)c(CC=C(C)C)c4)c(=O)oc3c2C)OC1(C)C : viability, T/C beneath 80%, strictly?
OUT: 1 (yes)

IN: Bench note: check whether CCc1cc2c(N3CCc4c(cc(Cn5ccnc5)cc4-c4cn(C)nc4C(F)(F)F)C3=O)cc(C)nc2c(OC)n1 + Nc1ccc(C#CCN(C(=O)Cc2ncc(C(F)(F)F)cc2C(F)(F)F)c2ccc(F)cc2)nn1 shows viability, T/C below 80%
OUT: 1 (yes)

IN: Dear reviewer, please state whether Nc1ccn(C2OC(CO)C(O)C2(F)F)c(=O)n1 (stereo not given) + Nc1ccc(C#CCN(C(=O)Cc2ncc(C(F)(F)F)cc2C(F)(F)F)c2ccc(F)cc2)nn1 has viability, T/C strictly beneath 80%.
OUT: 1 (yes)

IN: For this compound, is viability, T/C lower than 80%? CCc1cc2c(N3CCc4c(cc(Cn5ccnc5)cc4-c4cn(C)nc4C(F)(F)F)C3=O)cc(C)nc2c(OC)n1 + COC1C(OC(N)=O)C(O)C(Oc2ccc3c(O)c(NC(=O)c4ccc(O)c(CC=C(C)C)c4)c(=O)oc3c2C)OC1(C)C
OUT: 1 (yes)

IN: Please state whether viability, T/C is below 80% for COc1cc2cc(C(=O)CCC(=O)O)sc2cc1OC + COC1C(OC(N)=O)C(O)C(Oc2ccc3c(O)c(NC(=O)c4ccc(O)c(CC=C(C)C)c4)c(=O)oc3c2C)OC1(C)C
OUT: 0 (no)

IN: Find out if reported viability, T/C for O=C(Nc1ccc(O)c(NS(=O)(=O)c2ccc(F)cc2)c1)c1ccc(-c2ccccc2)cc1 + Cc1cccc(N(C)C(=O)C2C(O)CCN2c2nc(C)cc(C(F)(F)F)c2C#N)c1 is less than 80%
OUT: 0 (no)

IN: Hi there! Is viability, T/C for C=CCn1c(=O)c2cnc(Nc3ccc(N4CCN(C)CC4)cc3)nc2n1-c1cccc(C(C)(C)O)n1 + Cc1cccc(N(C)C(=O)C2C(O)CCN2c2nc(C)cc(C(F)(F)F)c2C#N)c1 below 80%, do you know?
OUT: 1 (yes)

IN: Check if viability, T/C falls below 80% for CCc1c2c(nc3ccc(O)cc13)-c1cc3c(c(=O)n1C2)COC(=O)[C@]3(O)CC + COC1C(OC(N)=O)C(O)C(Oc2ccc3c(O)c(NC(=O)c4ccc(O)c(CC=C(C)C)c4)c(=O)oc3c2C)OC1(C)C .
OUT: 1 (yes)

IN: Would you kindly verify if viability, T/C of CC(C)n1c(=O)n(C)c2cnc3cc(F)c(-c4ccc(OCCCN5CCCCC5)nc4)cc3c21 + Nc1ccc(C#CCN(C(=O)Cc2ncc(C(F)(F)F)cc2C(F)(F)F)c2ccc(F)cc2)nn1 is strictly less than 80%?
OUT: 0 (no)

IN: Does this compound meet the criterion viability, T/C < 80%? C#Cc1c(F)ccc2cc(O)cc(-c3ncc4c(N5CC6CCC(C5)N6)nc(OCC56CCCN5CC(F)C6)nc4c3F)c12 (stereo not given) + COC1C(OC(N)=O)C(O)C(Oc2ccc3c(O)c(NC(=O)c4ccc(O)c(CC=C(C)C)c4)c(=O)oc3c2C)OC1(C)C
OUT: 0 (no)

IN: Could you please tell me whether viability, T/C recorded for O=C(c1cc(Cc2n[nH]c(=O)c3ccccc23)ccc1F)N1CCN(C(=O)C2CC2)CC1 + COC1C(OC(N)=O)C(O)C(Oc2ccc3c(O)c(NC(=O)c4ccc(O)c(CC=C(C)C)c4)c(=O)oc3c2C)OC1(C)C is less than 80%?
OUT: 0 (no)

IN: Does this compound meet the criterion viability, T/C < 80%? CNCc1ccc(-c2[nH]c3cc(F)cc4c3c2CCNC4=O)cc1 + COC1C(OC(N)=O)C(O)C(Oc2ccc3c(O)c(NC(=O)c4ccc(O)c(CC=C(C)C)c4)c(=O)oc3c2C)OC1(C)C
OUT: 0 (no)

IN: Field: below-cutoff. Rule: recorded viability, T/C strictly less than 80%. Subject: O=C(c1cc(Cc2n[nH]c(=O)c3ccccc23)ccc1F)N1CCN(C(=O)C2CC2)CC1 + Nc1ccc(C#CCN(C(=O)Cc2ncc(C(F)(F)F)cc2C(F)(F)F)c2ccc(F)cc2)nn1
OUT: 0 (no)
